List of growth values.
tested on: ACHN renal; assay: NCI-60 one-dose screen, 48 h (100 = growth as untreated, 0 = no growth, -100 = all killed); conditions: 10 µM unless noted
About 83,000 compounds went through this panel and 20% of them were active in at least one assay; those are over-represented in the sample as a whole. The source made the active and inactive calls. Rule for the calls: active = growth percent below 10; inactive = the rest.

Solved entries (count: 5):
# compound, growth
measured = [
    ("Cc1cc2c(cc1C)N(C(=O)CCl)CC(=O)N2", "-8.11% (active)"),
    ("O=C(NNC(=O)c1ccc(NC(=O)c2ccccn2)cc1)Nc1ccc2ccccc2c1", "104% (inactive)"),
    ("Cc1ccc(-c2nc3nc(-c4ccccc4)nc(N4CCCN(S(C)(=O)=O)CC4)c3o2)cc1", "46.1% (inactive)"),
    ("CC1=C2[C@@H](CC1)[C@]1(C)O[C@@](c3ccccc3)(C[C@H]1OC(=O)CO)[C@H]2OC(=O)/C=C/c1ccccc1", "2.46% (active)"),
    ("Cc1nc2c(c(=O)[nH]1)C(c1ccccc1)c1ccc3ccccc3c1O2 (centres undefined)", "39.8% (inactive)"),
]

Kindly review the next compound as well.
Query: Fill in: growth of COc1ccc(/C=C2\COc3ccc(O)cc3C2=O)cc1 is ___
Result: 98.9% (inactive)
